Assay: qHTS for inhibitors of Vif-A3G interactions: Cherry picks; note: nearly all actives have a fitted effect of over 80% in size
Settings: HeLa A3G-eYFP + Vif, 24 h; eYFP fluorescence increase; series mostly up to 36.9 µM
Out of some 2,100 compounds screened, about 650 (31%) were called active. Roughly 16% stayed inconclusive and do not appear here. Calls come from the whole dose curve; as a rule, active = well fitted inhibition curve with a large enough effect; inconclusive = small, poorly fitted or top-dose-only effect; inactive = flat fitted curve, though single readings scatter. This is one part of the list.
Possible outcomes: true for active, false for inactive

{"QUERY_SMILES": "COc1ccc(C(=O)/C=C/Nc2ccc([N+](=O)[O-])cc2C)c(OC)c1", "CLASSIFICATION": "true"}
{"QUERY_SMILES": "COc1cc(/C=N/NC(=O)c2[nH]nc3c2CCc2ccccc2-3)ccc1O", "CLASSIFICATION": "false"}
{"QUERY_SMILES": "COc1cc(/C=C/C(C)=NNc2ccccc2)ccc1O", "CLASSIFICATION": "false"}
{"QUERY_SMILES": "COc1ccc(C(=O)c2cc([N+](=O)[O-])ccc2N2CCCC2)cc1", "CLASSIFICATION": "false"}
{"QUERY_SMILES": "COc1cc(/C=C2\\SC(=S)N(NC(=O)c3ccccc3O)C2=O)ccc1O", "CLASSIFICATION": "true"}
{"QUERY_SMILES": "COc1cc(/C=N/NC(=O)c2cc(-c3c(C)nn(-c4ccccc4)c3C)n[nH]2)ccc1O", "CLASSIFICATION": "false"}
{"QUERY_SMILES": "Cc1ccc(N2C(=O)[C@@H]3[C@H](C2=O)[C@H]2C=C(C(=O)c4ccccc4)C=CN2[C@@H]3C(=O)c2ccc(Cl)cc2)cc1", "CLASSIFICATION": "false"}
{"QUERY_SMILES": "CC(C)(C)NCC(=Cc1ccccc1)C(=O)c1ccccc1", "CLASSIFICATION": "false"}
{"QUERY_SMILES": "COc1ccc(N/C=C/C(=O)c2cc(OC)c(OC)c(OC)c2)cc1", "CLASSIFICATION": "false"}
{"QUERY_SMILES": "COc1cc(/C=C2\\SC(=S)N(NC(=O)c3ccc(O)c(OC)c3)C2=O)ccc1O", "CLASSIFICATION": "true"}

----------
Experiment: qHTS for inhibitors of Vif-A3G interactions: Cherry picks; note: nearly all actives have a fitted effect of over 80% in size; note: potency is the fitted concentration of half-maximal effect
Settings: HeLa A3G-eYFP + Vif (tagged APOBEC3G with the HIV-1 protein that degrades it), 24 h; eYFP fluorescence increase; series mostly up to 36.9 µM
Hit rate of the full screen: of about 2,100 compounds, about 650 (31%) were called active. Inconclusive results (about 16%) are left out. Some of the results follow.

{"COMPOUND": "Cc1nn(-c2ccc(F)cc2)c(Cl)c1/C=C1\\C(=O)Nc2ccccc21", "Potency": "inactive"}
{"COMPOUND": "S=c1[nH]cnc2sc(-c3ccccc3)cc12", "Potency": "inactive"}
{"COMPOUND": "O=C(Nc1ccc(Cl)cn1)c1cccc(S(=O)(=O)N2CCCCCC2)c1", "Potency": "inactive"}
{"COMPOUND": "Cc1cccc(N2CCN(Cc3cn(C)nc3-c3ccccc3F)CC2)n1", "Potency": "inactive"}
{"COMPOUND": "CC(C)n1c(O)c(N=Nc2ccc(Cl)nn2)c2ccccc21", "Potency": "16.4 µM (active)"}
{"COMPOUND": "CC(=O)Nc1cccc(-c2ccnc3c2CC(C(=O)NCc2ccco2)O3)c1 (configuration not stated)", "Potency": "inactive"}
{"COMPOUND": "Cc1ccc(Cn2c(SCc3ccc(C(=O)NC4CCCC4)cc3)nc3ccncc32)cc1", "Potency": "inactive"}
{"COMPOUND": "CCN1C/C(=C/c2cccc([N+](=O)[O-])c2)C(=O)/C(=C/c2cccc([N+](=O)[O-])c2)C1", "Potency": "inactive"}
{"COMPOUND": "COc1ccc(NC(=O)C2(C)Cc3c(-c4cccc(C(N)=O)c4)ccnc3O2)cc1 (configuration not stated)", "Potency": "inactive"}
{"COMPOUND": "COc1cc(OC)c(/C=C/c2ccnc3ccccc23)c(OC)c1", "Potency": "inactive"}
{"COMPOUND": "COc1cc(N2CCCC2)c(OC)cc1/C=C1/NC(=S)NC1=O", "Potency": "2.5 µM (active)"}
{"COMPOUND": "COc1cc(N2CCCC2)c(OC)cc1/C=C(/C#N)c1ccc(Br)cc1", "Potency": "8.2 µM (active)"}
{"COMPOUND": "COc1cccc2sc(Nc3nc(-c4cc5ccccc5oc4=O)cs3)nc12", "Potency": "inactive"}
{"COMPOUND": "CCN(CC)c1ccc(/C=C/c2cccc[n+]2C)c(OC)c1", "Potency": "17.7 µM (active)"}
{"COMPOUND": "O=C(N/N=C/c1cccc(F)c1)c1cc(-c2ccco2)nc2ccccc12", "Potency": "inactive"}
{"COMPOUND": "CCc1ccc(CNC(=O)Cc2ccc(NC(=O)C3=C(C)OCCS3)cc2)cc1", "Potency": "inactive"}
{"COMPOUND": "CCCCCS(=O)(=O)c1oc(-c2cccs2)nc1S(=O)(=O)c1ccc(C)cc1", "Potency": "inactive"}
{"COMPOUND": "O=C(O)c1ccccc1N/N=C/c1c(Sc2nnnn2-c2ccccc2)nc2ccccn2c1=O", "Potency": "3.53 µM (active)"}
{"COMPOUND": "Cc1csc(NC(=O)CCC(=O)N(CC(=O)NC2CCCC2)Cc2ccccc2)n1", "Potency": "inactive"}
{"COMPOUND": "Nc1c(C(=O)N/N=C/c2cccnc2)oc2nc(-c3ccccc3)cc(-c3ccco3)c12", "Potency": "5.8 µM (active)"}
{"COMPOUND": "Cc1ccc(C=NNC(=O)c2cc(-c3cccnc3)nc3ccccc23)o1", "Potency": "inactive"}
{"COMPOUND": "Cc1c(C(=O)Nc2cnccn2)oc2ccccc12", "Potency": "inactive"}
{"COMPOUND": "COc1ccccc1N1C(=O)C2C(C(=O)c3ccccc3)=NN(c3ccc(C)cc3)C2C1=O (configuration not stated)", "Potency": "inactive"}
{"COMPOUND": "Cc1cc(N2CCN(Cc3cn(C)nc3-c3ccccc3F)CC2)cc(C)n1", "Potency": "inactive"}
{"COMPOUND": "COc1ccc(C2C(C#N)=C(N)Oc3c2ccc2cccnc32)cc1OC (configuration not stated)", "Potency": "inactive"}
{"COMPOUND": "O=C(NC1C/C(=N/O)c2cc3c(cc21)OCO3)C(F)(F)F (configuration not stated)", "Potency": "inactive"}
{"COMPOUND": "CCOc1ccccc1Nc1nnc(-c2cc3cc(Cl)ccc3oc2=O)s1", "Potency": "inactive"}
{"COMPOUND": "COc1ccc(-c2[nH]ncc2N=Nc2ccccc2)cc1", "Potency": "inactive"}
{"COMPOUND": "Nc1c(C(=O)Nc2ccc(S(=O)(=O)N3CCCC3)cc2)sc2nc3cc4c(cc3cc12)CCC4", "Potency": "8.2 µM (active)"}
{"COMPOUND": "COc1ccc(NC(=O)C2(C)Cc3c(-c4cccc(NC(C)=O)c4)ccnc3O2)cn1 (configuration not stated)", "Potency": "inactive"}
{"COMPOUND": "CN1/C(=C/C=C(/C#N)C(N)=O)C(C)(C)c2ccccc21", "Potency": "inactive"}
{"COMPOUND": "O=C(N/N=C/c1ccc(Cl)cc1)c1cc(-c2cccnc2)nc2ccccc12", "Potency": "inactive"}
{"COMPOUND": "O=C1OCC2=C1C(c1ccc3c(c1)OCO3)c1cc3c(cc1O2)OCO3 (configuration not stated)", "Potency": "inactive"}
{"COMPOUND": "COc1ccc(S(=O)(=O)Nc2cccc(-c3ccc4nncn4n3)c2)cc1F", "Potency": "inactive"}
{"COMPOUND": "COc1ccc(NC(=O)C2Cc3c(-c4cccc(C(C)=O)c4)ccnc3O2)cn1 (configuration not stated)", "Potency": "inactive"}
{"COMPOUND": "Nc1c(C(=O)N/N=C/c2ccccc2Cl)oc2nc(-c3ccccc3)cc(-c3ccco3)c12", "Potency": "5.8 µM (active)"}
{"COMPOUND": "COc1cc(Cl)c(C)cc1Nc1nc2ccccc2nc1NS(=O)(=O)c1ccccc1", "Potency": "16.4 µM (active)"}
{"COMPOUND": "CSc1nc2ccccc2cc1/C=C(\\C#N)c1ccccc1", "Potency": "inactive"}
{"COMPOUND": "CCN(CC)c1ccc2c(cc1=O)[C@@H](NC)CCc1cc(OC)c(OC)c(OC)c1-2", "Potency": "inactive"}
{"COMPOUND": "CCN(CC)c1nc(C)c(C(=S)Nc2cc([N+](=O)[O-])ccc2Cl)s1", "Potency": "inactive"}
{"COMPOUND": "COC(=O)c1cc(Nc2nc3ccccc3nc2NS(=O)(=O)c2ccc(C)cc2)ccc1Cl", "Potency": "inactive"}
{"COMPOUND": "O=C(N/N=C/c1ccco1)c1cc(-c2ccncc2)nc2ccccc12", "Potency": "inactive"}
